- TARGET_DESC: human DGKζ (Homo sapiens, UniProt Q13574)
- Construct: TVMV protease cleavage site (C); Hexa-His (C); made in house; host or cells: Sf9 insect cells (baculovirus, Bac-to-Bac)
- Sequence (Q13574 with tags, fused parts or gaps isoform Q13574-4): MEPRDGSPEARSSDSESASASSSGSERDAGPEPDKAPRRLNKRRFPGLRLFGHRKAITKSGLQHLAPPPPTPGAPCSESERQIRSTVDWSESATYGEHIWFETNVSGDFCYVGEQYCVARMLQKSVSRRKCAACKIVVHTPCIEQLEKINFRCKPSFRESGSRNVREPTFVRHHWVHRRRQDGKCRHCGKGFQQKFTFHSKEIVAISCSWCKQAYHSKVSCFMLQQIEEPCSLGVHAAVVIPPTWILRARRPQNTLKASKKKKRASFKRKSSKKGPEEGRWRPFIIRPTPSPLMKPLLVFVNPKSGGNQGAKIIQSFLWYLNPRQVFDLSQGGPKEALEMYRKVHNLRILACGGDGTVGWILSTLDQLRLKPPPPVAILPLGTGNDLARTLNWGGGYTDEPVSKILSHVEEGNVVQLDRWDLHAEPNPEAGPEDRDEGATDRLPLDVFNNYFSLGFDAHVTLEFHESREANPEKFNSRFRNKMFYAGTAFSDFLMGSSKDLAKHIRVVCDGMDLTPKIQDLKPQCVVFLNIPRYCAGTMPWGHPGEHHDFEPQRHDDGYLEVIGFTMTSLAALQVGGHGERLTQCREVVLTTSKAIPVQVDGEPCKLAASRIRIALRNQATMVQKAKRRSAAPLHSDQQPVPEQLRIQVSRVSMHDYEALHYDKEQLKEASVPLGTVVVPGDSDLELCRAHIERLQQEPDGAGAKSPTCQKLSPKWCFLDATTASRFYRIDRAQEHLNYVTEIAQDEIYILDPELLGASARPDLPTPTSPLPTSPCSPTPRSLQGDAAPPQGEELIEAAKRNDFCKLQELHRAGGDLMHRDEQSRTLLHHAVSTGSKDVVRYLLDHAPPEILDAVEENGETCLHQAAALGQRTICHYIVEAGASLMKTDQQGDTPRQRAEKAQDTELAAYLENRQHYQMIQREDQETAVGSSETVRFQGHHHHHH
- PROTOCOL_SUMMARY: DGKζ LIPGLO assay (extruded liposome substrate), in vitro DGK inhibition
- Assay type: biochemical
- CONDITION_DETAILS: liposome (LIPGLO) assay; read-out: DGKz LIPGLO IC50
Labelling: IC50 reported below 3 µM becomes yes; at or above becomes no.

| COMPOUND | TARGET_DESC | LABEL_CLASS |
| --- | --- | --- |
| COc1ccc(C(c2cccc(F)c2)N2C[C@H](C)N(c3cc(=O)n(C)c4ccc(C#N)nc34)C[C@H]2C)nc1 (single isomer, unassigned) [Example 686] | human DGKζ (Homo sapiens, UniProt Q13574) | no |

Please state whether IC50 is below 3 µM for COc1ccc(C(C)N2C[C@H](C)N(c3cc(=O)n(C)c4ccc(C#N)nc34)C[C@H]2C)cc1OCCN1CCOCC1 (stereo partly shown) [Example 1304]
no

Say whether its IC50 is strictly beneath 3 µM. Entry: Cn1c(=O)cc(N2CCN(C(c3ccc(F)cc3)c3ccc(F)cc3)C(C(N)=O)C2)c2nc(C#N)ccc21 (single isomer, unassigned) [Example 42]
no

Given CCC(c1ccc(OC(F)(F)F)cc1F)N1C[C@H](CC)N(c2cc(=O)n(C)c3ccc(C#N)nc23)C[C@H]1C (single isomer, unassigned) [Example 1378] , is recorded IC50 strictly lower than 3 µM?
yes
